assay.explanation: protease stability score; higher = more stable; yeast display proteolysis, trypsin and chymotrypsin;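 also: relative to predicted unfolded state with 0 unfolded-like and 1 meaning tenfold more protease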
Decision: protease stability score >= 2 yields satisfied, all other cases yield not satisfied.

Query block: Identify whether the reported protease stability score of the following sequence is 2 or greater: `TDKEEETKENAEKLTKHILTGNWEEFFNLADPNVRMHIQQGDKRINRHGREDAYHEYKDLERNLGIDHMHIKDIRVQGDWVHIHLEYRYGDKRFEVEIVLLIVDGRLTEVNVTIR`
Result block: not satisfied

Query block: Does `SEEEEQSRKIFRLLYKVIETGDEDIFTKLFDPHARLIYNGKEYIGWEEAVQVLRHIRIDREELSVVRINNVNGQVHIHSVSRMDGEINGVEHHTRVELNFIVIKINGRWVIHTWEIRID` have a reported protease stability score of at least 2?
Result block: satisfied

Query block: Please check the record `SEDEELSKYLNEEINEILRTGDEDRWKELADPNTLLIIDGREFHGMELVIHLLHHLWKRLGIDQIHSTVEDEKVQGDKIIFHHRLEYNGRESHVIIISHKFNGRWRAKRVEVN` and state if its protease stability score is at or above 2.
Result block: not satisfied

Query block: Kindly determine if protease stability score recorded for `DEDDEDTRRLLKLLSDAEETGDEELLRHLADPHVRVHVGDKEWHGWDAFVRFLRHIRIETFHVRRIRVQGDKVDVDGQTVVTINGRRHELKTTIILIKIDGQWVIEKLTIH` is above or exactly 2.
Result block: not satisfied

Query block: Determine whether measured protease stability score meets or exceeds 2 for `SEDEEHAREFIKILFELLLTGDFKARLERLDPHTRLDVDGKDVHGMENINDLWLRIVEKYKNIQIHFHIHDVSIIGDKIHLHVHVEINVNGVNLRHEELTIVQKFNGKWIIKERHYI`
Result block: not satisfied

* * *

assay.explanation: protease stability score; higher = more stable; yeast display proteolysis, trypsin and chymotrypsin;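 also: relative to predicted unfolded state with 0 unfolded-like and 1 meaning tenfold more protease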
Hi there, I'd appreciate the recorded protease stability score for every entry that follows.
// keep it numeric: no unit symbol after the value

Query block: Specify protease stability score for `DESEKYLKDAVEILIRVIRTGDEHTMKELLDPNVRLHAENHESHGRELLEWWTRRIDHVNDSKIEDMRTVGDYVELDMRLHTVFNGQTIDIKTTFIIIKVNGKWQLRSVHIH` and stop.
Result block: 1.26

Query block: Dear colleague, please send me the reported protease stability score for `SHDEELVERVLKMYKHAIETGDEELLTLLLDPDTRLEIDGVDFHGMDIAIHILFKELLRHGIRTEHMRVEDVKVQGDFVHVDVEVNIDVDGREETERRHLVLWKFNGRWRVKHHHIH` when you can.
Result block: 2.35

Query block: Name the recorded protease stability score of the sequence listed here: `DESDTLAKEATREFEEFMRTGDEHSLLKLADPHVRLFWNGKQLVGREDYSKHIKFLLEHFGFDNIESRTEHIDWQGDKLRLHLRMHVNGKTITVEIHSEKINGRWMNREIHFT`
Result block: 1.44

Query block: Tell me its protease stability score given `DEEDELSEELSRFSLKTLRTGDEDLLSRNMDPHVRMDIDGQDLHGREHVIKFLKDWNRMFGIKHTELKHVRIQGNWIEIHARIQVGDKEMDLRIYAVKIDGRWLVHSIEVEKK` as the entry.
Result block: 0.182

Query block: State, in one line, measured protease stability score of `SEVDEQAEHMSRLYLKLIKTGDEEHLMHLADPHTRLDINGKTFIGMEVVHEFNEKERRRVPNMRIHEKSVKVEVFDGRAFTEIHGEWHFDGVTQEIRIEVRIDKVNGRWTIRSVHVEIR`
Result block: 0.704

Query block: Complete the entry with protease stability score for `SEEEYWAKEMAILLDIAWYTGDEERFEEYVDPNTRIDFDGRVFHGREFLHHFRERVDHMREVRSRIESVHKQGDKLRVHGHLIIQGVIDGVDTQQRFKVHFIMEKVDGRWIFREEIYK`
Result block: 1.51

Query block: Indicate the recorded protease stability score value for this sequence: `DDRKKEAHELFEFLLDVFRTGDEKSTEELLDPHTRNVIGDKHYHGRDVWVTFMKKFKNAKVHFNHLEVQGDKVTFDITFEIGDKTHRMRFFLEKYDGRWFIKEIQVD`
Result block: 1.44

Query block: Answer with reported protease stability score of `DEDHKHAERFVEEFITLILTGNEELLKRLADPNVKIDFDGVEIIGREILNSHTKKQINRIDHIRIHIRHIHVQGDKAIIDLEVRIIVDGKEDRNETHLFLTKVNGRWILTSWKVG`
Result block: 1.6

Query block: Quickly give me recorded protease stability score for `SEDEEEAHEFLKRLDNAHRTGDEDFVYEQMDPDVRIDINGREWHGRELAREYLSIYGIKVMEVKRVNVYDGRINVDGHVEFNGVRNKTTIIMQKIDGRWRVKSITIK`
Result block: 1.41

Query block: Quote protease stability score reported for `DDEEKETEDFLRLLIEFLLTGDEERLKDLLDPNTRLEYGEFDFVGREHVLEWRHHYRKILGAKHRELRIEHLHVIDGRVNAISRVHLRFDGREYSHETIIIIEKVNGKWLLHSEEIR` please.
Result block: 1.33

Query block: Identify measured protease stability score corresponding to `DEDNEYVEYMHELIARALITGDFELWLKLMDPNTRMQIDGKEFHGREEFRKRLEHLRIDRVRYNVRHFHIIGDKLHVKSEFEIDGQIDGVDRHFSVEIRVLIWKINGRWILRDETTH`
Result block: 1.69

Query block: Look up protease stability score of `SDEQEISEFILRIWLELVLTGDEKMMKKLFDPNTRFEINGVDIHGMESIAEHLLREREEWRSHITLTDREIQGDKVRVHTILKVDINGQHLRHHTRIIIIIINGRIHSIHIRVE` and report it.
Result block: 0.673

Query block: Give me measured protease stability score, please, for this sequence: `NELEKETHEITRRWIEILLTGNEEDWAKLADPHVRIDINGKKYVGREMVVEYLRELLDKIKNLQFHITRIHDQGDKSEIDGRLEYNGRKHEARVEIWIIDGKIRSEHYSIR`
Result block: 2.2

Query block: Answer with reported protease stability score of `DEDTRDVDRFLKRLEETLLTGDWNSIRELFDPNVKVIFNGRHRHGWQNMVDILREIRVTDVRMELDDVEQYGDKITIRGRLRFKGEINGKEQDTSLTIEIILIKVNGKWSVNSIEFR`
Result block: 2.46

Query block: In one line, give reported protease stability score of the entry `DDDDRKNHEIAKWIWELIETGDEDILQHLADPDYRLVLDFDGVHIHRHGMTRIYHTLERVYREFGADHIHIRSITNINGVNIIDGEVQVNGKHYRLVLIFIVVNGRIKEIRVKKR` .
Result block: 1.54

Query block: Name the recorded protease stability score of the item `DEDEEMFHRAVRLLLEHSRTGDEELTTKMADPHVKVDINGRDLIGRESYSRWWSEKAEQMRIDFRFRRVEVFDGVIFIDFKLIVDVNGRRLEFELHILILKIDGRWIIKEVHVK` in your answer.
Result block: 0.68

Query block: Tell me its protease stability score given `DHREKEVHFMAKWIVEIFQTGDEDMWRHLADPDVRLDIVQGEKRDNNVGREVSEKTLKELRHHWGLERVEVRVDHIDHQGDKARVDGTVNINGVHFKTEIVIIVVDGRFKRVKYIIG` as the entry.
Result block: 1.39

Query block: // fetch protease stability score given entry `DEDERLAKHFIELFIESFLTGDFDEVRKLIDPHTRVEIIIGDKVIEDHGWEAYSRTFNHLGIDHIHREDFRVTLVNGRAVLRLQFRIEIGDKEFDMHIHVFSNKINGRWHVERILIYVR`
Result block: 2.34

Query block: Read off the recorded protease stability score for `HDKEHLSEYLLDLTEYLIRTGDFKLMLKMADPHVRNHIIIGEFELEYHGWHVYIHWLEKVLRRFGVDHVHVTHRNAQGDKVEMDTHLEVNGRRHDVDQHWVYINGRIEHVRFRIR`
Result block: 0.794

Query block: Report measured protease stability score; entry is `SERDEVAHLAFEYLINTHQTGDWRLFKEYLDPNVRFHVGDKFFHGRESVSKFFEEEMHRLGFKHIEMEHFEQQGDYLTINLTVRVDGQEYKLIYFALKVDGRWILRSITFE`
Result block: 1.38

Query block: # return recorded protease stability score for input `TEEKHELEKLAKIMFEIIETGDEKTWDELLDPNMRSDVNGVENIGREKVDKAILHYIKRIPNVRIQFTDMHIQGDKVIIRTEVHIGDYREELIIEVVVVNGRFKSFRLTLRRE`
Result block: 1.22

Query block: Please give the documented protease stability score of `SEEDHELRIASEIMIKTTRTGDERLIKELFDPNTQIDFDGQELHGWKFVRRLDEEMRMHRSETKSYERYGDKIVIDIEVDVEFNGVRTRIRVTIIARKVNGRWLNEVMIIH`
Result block: 1.14

* * *

Exercise: for every item that follows, state its recorded protease stability score.
assay.explanation: protease stability score; higher = more stable; yeast display proteolysis, trypsin and chymotrypsin;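 also: relative to predicted unfolded state with 0 unfolded-like and 1 meaning tenfold more protease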

Query block: For the sequence `DELWELAFFIMKILLHLHLTGDEEMWSSYADPNVRFTLRVGDKEVKRHGMEDVEKFQTELEREIRVDHFDERRTHYYNGRARVDGHIDGLVNGRPVHFRTELHVHTIDGVVREVEIIIE` , give its reported protease stability score.
Result block: -0.045

Query block: Indicate its recorded protease stability score; the sequence in question is `DEEEELREESEKFEHRAWETGDWKLLAELMDPHTRFITEDHDFHGRENMEKLLEDDLRRIKNATIRSIIIRRTHEINGRLLLIGIVDVEIDGKRVIRDVKYIKVKINGRWYITTMQVR`
Result block: 0.796

Query block: Identify measured protease stability score corresponding to `SEDEEVVKEWIKVVLHSMVTGDEDDVRRLFDPHTRIEINGVLFIGRKWAETLARRVDHHHIETIEYHRSHVVDGVATVDGTFRGREEVDGRKIEHHFRIEFVIMKIDGRWVTQQMRIK`
Result block: 1.56
